Molecular target: T1, GDF15-HIS (ACROBiosystems, CAT #: GD5-H5149) (human, UniProt Q99988 197-308)
T1 construct: Bought protein; also called GDF15 (ACROBiosystems, GD5-H5149); human GDF15; not shown: His tag
T1 sequence (looked up): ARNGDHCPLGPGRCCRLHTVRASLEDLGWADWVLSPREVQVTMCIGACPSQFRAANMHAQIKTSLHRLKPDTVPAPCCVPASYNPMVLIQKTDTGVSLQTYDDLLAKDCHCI
Experiment: BLI (ForteBio Octet), antibody immobilised, GDF15 200-6.25 nM
MEASUREMENT_KIND: pKd
Please keep in mind that pKd is minus log10 of the molar concentration; only the number is needed.

Item A4 (murine anti-2A2) (antibody, V domains shown, Purified murine hybridoma antibody) VH: QVTLKESGPGILQPSQTLSLTCSFSGFSLTTSGMGVDWIRQSSGKGLEWLAHIYWDDDKRYNPSLKSRLTISKDTSSNQVFLKITSVDTADTATYYCARRAWDAMDYWGQGTSFTVSS VL: DIVMTQAQKFMSTSVGDRVSVTCKARQNVGTNVAWYQQKPGQSPKALIYSASYRYSGVPDRFTGSGSGTDFTLTISNVQSEDLAEYFCQQYNSYPYTFGGGTKLEIK has what recorded pKd? 9.84
